System: eggs of Thrips
Experiment: Effect on hatching of eggs of Thrips, leaf disc method
Type: in vivo
Details: 100 ppm, Replicate 3
Documented Number of hatched larvae 5 days after insecticide delivery across a set of compounds
measured-quantity: Number of hatched larvae 5 days after insecticide delivery

# compound, reported-result
rows = [
    ("CCC(COS(=O)OCCF)Oc1ccc(Cl)cc1Cl [19′-(R,R)]", 0),
    ("CC[C@H](COS(=O)OCCF)Oc1ccc(Cl)cc1Cl (stereo partly drawn) [19′-(R,S)]", 9),
    ("CC(C)(COc1ccc(Cl)cc1Cl)OS(=O)OCCF (stereo not shown) [Compound R-10]", 17),
    ("CC(C)(COS(=O)OCCF)Oc1ccc(Cl)cc1Cl (stereo not shown) [S-10′]", 0),
]
